test system: HCC827 cells; experiment: Cytotoxicity assay (PrestoBlue cell viability), HCC827; format: cell-based; settings: Homo sapiens, 48 hours treatment

test-smiles | unit-tag | EC50
CCCCS(=O)(=O)Cc1nc2c(nc1CS(=O)(=O)CCCC)C(=O)c1ccccc1C2=O | nM | 1800

---

tested on: MESSA DX5 cells; test: Cytotoxicity assay (PrestoBlue cell viability), MESSA DX5; assay type: cell-based, human; settings: Homo sapiens, MES-SA/Dx5; 48 hours treatment; chemoresistant line

compound | operator | EC50 / nM
CCS(=O)(=O)Cc1nc2c(nc1CS(=O)(=O)CC)C(=O)c1ccccc1C2=O | > | 3000
CCCS(=O)(=O)Cc1nc2c(nc1CS(=O)(=O)CCC)C(=O)c1ccccc1C2=O | = | 3500
O=C1c2ccccc2C(=O)c2nc(CS(=O)(=O)c3ccccc3F)c(CS(=O)(=O)c3ccccc3F)nc21 | = | 800
CCCCS(=O)(=O)Cc1nc2c(o1)C(=O)c1ccccc1C2=O | = | 1800
CCCCS(=O)(=O)Cc1nc2c(nc1CS(=O)(=O)CCCC)C(=O)c1ccccc1C2=O | = | 3500
CC(=O)O[C@H]1C(=O)[C@@]2(C)[C@H]([C@H](OC(=O)c3ccccc3)[C@]3(O)C[C@H](OC(=O)[C@H](O)[C@@H](NC(=O)c4ccccc4)c4ccccc4)C(C)=C1C3(C)C)[C@]1(OC(C)=O)CO[C@@H]1C[C@@H]2O [Paclitaxel, reference compound] | > | 100000
COc1ccc(S(=O)(=O)Cc2nc3c(nc2CS(=O)(=O)c2ccc(OC)c(OC)c2)C(=O)c2ccccc2C3=O)cc1OC | = | 2500

Reference for the values: patent US11306063B2
